biological target: SaSiaT (Staphylococcus aureus); test: nanoDSF thermal shift assay, SaSiaT; format: binding; settings: SaSiaT, experiment 1, first capillary, 1.25 mM
Sequence (A0A0H2XJ46 entry or part of it): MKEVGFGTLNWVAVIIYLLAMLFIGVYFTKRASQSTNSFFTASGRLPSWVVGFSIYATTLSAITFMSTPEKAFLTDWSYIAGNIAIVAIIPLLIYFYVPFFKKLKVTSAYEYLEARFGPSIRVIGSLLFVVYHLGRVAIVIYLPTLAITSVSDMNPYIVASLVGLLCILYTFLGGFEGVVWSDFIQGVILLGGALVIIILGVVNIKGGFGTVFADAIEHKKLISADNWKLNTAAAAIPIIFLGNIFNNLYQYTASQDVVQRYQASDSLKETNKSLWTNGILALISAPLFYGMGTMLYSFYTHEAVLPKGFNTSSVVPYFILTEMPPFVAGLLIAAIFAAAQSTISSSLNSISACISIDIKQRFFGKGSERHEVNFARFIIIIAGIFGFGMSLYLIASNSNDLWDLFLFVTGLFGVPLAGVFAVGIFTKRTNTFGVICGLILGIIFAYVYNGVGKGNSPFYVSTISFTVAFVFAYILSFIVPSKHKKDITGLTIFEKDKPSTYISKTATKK
endpoint: Tm 1 (°C)

molecule	numeric readout
CCSCC(O)C(O)C1OC(O)(C(=O)O)CC(O)C1NC(C)=O (stereo not shown) [Compound 8b]	49.9
CC(=O)NC1C(O)CC(O)(C(=O)O)OC1C(O)C(O)CCl (stereo not shown) [Compound 8c]	48.9
CC(=O)N[C@H]1[C@H]([C@H](O)[C@H](O)CO)OC(O)(C(=O)O)C[C@@H]1O (stereo partly shown) [Neu5Ac, 5-N-acetyl neuraminic acid, reference compound]	51.3
O=C(Cc1ccccc1)NC1C(O)CC(O)(C(=O)O)OC1C(O)C(O)CO (stereo not shown) [Compound 6e]	51.2
CC(=O)NC1C(O)CC(O)(C(=O)O)OC1C(O)C(O)CBr (stereo not shown) [Compound 8d]	49.9
CSCC(O)C(O)C1OC(O)(C(=O)O)CC(O)C1NC(C)=O (stereo not shown) [Compound 8a]	51.0
O=C(CCl)NC1C(O)CC(O)(C(=O)O)OC1C(O)C(O)CO (stereo not shown) [Compound 6g]	49.0

Reference source for all entries: paper PMC9295122
